Items are presented alongside their recorded pIC50.
Test system: HCT-116 cell proliferation
Test: Cell proliferation assay (HCT-116)
Format: cell-based
Conditions: Homo sapiens; HCT-116 cells; read-out: Activity (range of inhibitory activity against HCT-116 cell proliferation, IC50)
Description: A panel of cancer cell lines is obtained from ATCC (Rockville, Md.). […] For proliferation assays, cells are seeded into 96 well plates at 1,000-5,000 cells per well, depending on the cell line, and are incubated overnight. […] To measure cell growth in adherent cultures, DNA amounts are measured in each well using the CyQuant DNA determination kit (Invitrogen, Carlsbad, Calif.) following the recommended protocol. […]
pIC50: −log10 of the molar value.

Previously resolved entries follow.
Nc1ncnc2c([C@@H]3O[C@H](COS(N)(=O)=O)[C@@H](O)[C@H]3O)csc12 ... > 6.30
NS(=O)(=O)OC[C@H]1O[C@@H](c2ccc3c(N[C@H]4CCc5ccccc54)ncnn23)CC1=O ... 4.30 to 5.30
NS(=O)(=O)OC[C@H]1O[C@@H](c2csc3c(NCc4ccccc4)ncnc23)[C@H](O)[C@@H]1O ... 5.30 to 6.30

Looking up "NS(=O)(=O)OC[C@H]1C[C@H](c2ccc3c(N[C@H]4CCc5ccccc54)ncnn23)C[C@@H]1OS(N)(=O)=O" , I found its pIC50 recorded as 4.30 to 5.30

Looking up "Nc1ncnc2c([C@@H]3O[C@H](COS(N)(=O)=O)[C@@H](O)[C@H]3O)[nH]nc12" , I found its pIC50 recorded as 5.30 to 6.30

Looking up "Nc1ncnc2c([C@@H]3O[C@H](COS(N)(=O)=O)[C@@H](O)[C@H]3O)cnn12" , I found its pIC50 recorded as 4.30 to 5.30

Looking up "Nc1ncnc2c([C@@H]3O[C@H](COS(N)(=O)=O)[C@@H](O)[C@H]3O)coc12" , I found its pIC50 recorded as > 6.30

Looking up "NS(=O)(=O)OC[C@H]1O[C@@H](c2coc3c(NCc4ccc(Cl)cc4Cl)ncnc23)[C@H](O)[C@@H]1O" , I found its pIC50 recorded as 4.30 to 5.30

Looking up "NS(=O)(=O)OC[C@H]1O[C@@H](c2csc3c(NCC4CC4)ncnc23)[C@H](O)[C@@H]1O" , I found its pIC50 recorded as 4.30 to 5.30

---

Molecular target: recombinant human NAE enzyme (NEDD8 Activating Enzyme) (Homo sapiens)
Sequence (Q8TBC4 1-463): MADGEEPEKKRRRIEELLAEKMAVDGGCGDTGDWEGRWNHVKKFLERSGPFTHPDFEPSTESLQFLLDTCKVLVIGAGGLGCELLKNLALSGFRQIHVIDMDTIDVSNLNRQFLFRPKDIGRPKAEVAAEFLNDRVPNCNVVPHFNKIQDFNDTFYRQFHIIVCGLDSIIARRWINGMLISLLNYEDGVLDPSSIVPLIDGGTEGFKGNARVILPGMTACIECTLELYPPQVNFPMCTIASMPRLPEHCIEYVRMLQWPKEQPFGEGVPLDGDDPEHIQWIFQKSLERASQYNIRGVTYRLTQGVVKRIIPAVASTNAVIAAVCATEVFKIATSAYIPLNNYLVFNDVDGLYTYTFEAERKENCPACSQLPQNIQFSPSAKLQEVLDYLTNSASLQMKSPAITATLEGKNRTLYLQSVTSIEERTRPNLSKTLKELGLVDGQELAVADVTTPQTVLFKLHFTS
Sequence (Q13564 1-534 partner): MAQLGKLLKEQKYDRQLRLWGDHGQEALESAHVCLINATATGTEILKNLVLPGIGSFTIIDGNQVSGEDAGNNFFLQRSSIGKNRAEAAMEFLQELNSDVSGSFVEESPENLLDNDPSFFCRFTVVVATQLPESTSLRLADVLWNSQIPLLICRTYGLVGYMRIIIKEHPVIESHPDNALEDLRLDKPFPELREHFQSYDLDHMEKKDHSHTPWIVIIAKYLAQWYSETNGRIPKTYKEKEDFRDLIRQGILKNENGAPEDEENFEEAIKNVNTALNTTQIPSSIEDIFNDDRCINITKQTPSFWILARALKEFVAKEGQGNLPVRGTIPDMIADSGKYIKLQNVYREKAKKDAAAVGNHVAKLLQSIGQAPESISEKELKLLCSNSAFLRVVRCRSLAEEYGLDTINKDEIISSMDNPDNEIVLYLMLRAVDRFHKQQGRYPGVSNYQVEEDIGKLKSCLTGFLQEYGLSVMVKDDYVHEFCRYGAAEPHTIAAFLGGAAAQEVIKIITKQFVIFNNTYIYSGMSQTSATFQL
Experiment: E1-activating enzyme assay, time-resolved fluorescence energy transfer (NAE)
Settings: 0.5 nM recombinant human NAE, 100 μM ATP; read-out: Activity (range of inhibitory activity on NAE, IC50)
Items are presented alongside their recorded IC50.

Nc1ncnc2c([C@@H]3O[C@H](COS(N)(=O)=O)[C@@H](O)[C@H]3O)csc12 [Compound 4] ... < 0.5 µM
NS(=O)(=O)OC[C@H]1O[C@@H](c2csc3c(NCc4ccccc4Cl)ncnc23)[C@H](O)[C@@H]1O [Compound 30] ... 0.5 to 5 µM
NS(=O)(=O)OC[C@H]1O[C@@H](c2coc3c(NCc4ccc(Cl)c(C(F)(F)F)c4)ncnc23)[C@H](O)[C@@H]1O [Compound 35] ... 0.5 to 5 µM
Nc1ncnc2c([C@@H]3O[C@H](COS(N)(=O)=O)[C@@H](O)[C@H]3O)coc12 [Compound 11] ... 0.5 to 5 µM
NS(=O)(=O)OC[C@H]1C[C@H](c2ccc3c(N[C@H]4CCc5ccccc54)ncnn23)C[C@@H]1OS(N)(=O)=O [Compound 19] ... 5 to 50 µM

Looking up Nc1ncnc2c([C@@H]3O[C@H](COS(N)(=O)=O)[C@@H](O)[C@H]3O)[nH]nc12 [Compound 3] , I found its IC50 recorded as 0.5 to 5 µM

Looking up NS(=O)(=O)OC[C@H]1O[C@@H](c2csc3c(NCc4cccc(Cl)c4)ncnc23)[C@H](O)[C@@H]1O [Compound 37] , I found its IC50 recorded as 0.5 to 5 µM

Looking up NS(=O)(=O)OC[C@H]1O[C@@H](c2ccc3c(N[C@H]4CCc5ccccc54)ncnn23)CC1=O [Compound 1] , I found its IC50 recorded as 5 to 50 µM

Looking up NS(=O)(=O)OC[C@H]1O[C@@H](c2csc3c(NCc4ccc(Cl)cc4)ncnc23)[C@H](O)[C@@H]1O [Compound 6] , I found its IC50 recorded as < 0.5 µM

Looking up NS(=O)(=O)OC[C@H]1O[C@@H](c2csc3c(N[C@H]4CCc5ccccc54)ncnc23)C[C@@H]1O [Compound 10] , I found its IC50 recorded as 0.5 to 5 µM

---

tested on: HCT-116 cell proliferation; assay: Cell proliferation assay (HCT-116); type: cell-based; details: Homo sapiens; HCT-116 cells; read-out: Activity (range of inhibitory activity against HCT-116 cell proliferation, IC50)
pIC50: −log10 of the molar value.
measurement_kind: pIC50

Looking up "NS(=O)(=O)OC[C@H]1O[C@@H](c2csc3c(N[C@H]4CCc5ccccc54)ncnc23)C[C@@H]1O" , I found its pIC50 recorded as 5.30 to 6.30

Looking up "NS(=O)(=O)OC[C@H]1O[C@@H](c2csc3c(NCc4ccc(Cl)cc4)ncnc23)[C@H](O)[C@@H]1O" , I found its pIC50 recorded as 5.30 to 6.30

Looking up "COCCNc1ncnc2c([C@@H]3O[C@H](COS(N)(=O)=O)[C@@H](O)[C@H]3O)csc12" , I found its pIC50 recorded as 4.30 to 5.30
